- measurement_protocol: Intrinsic clearance in human liver microsomes assessed per mg of protein at 3 uM in presence of NADPH by LC-MS/MS analysis
- Type: ADME
- conditions: read-out: CLH
measurement_name: microsomal CLint at 3 µM (µL/min/mg)

compound | measurement_name | result_unit | observed
COc1ccc2c(c1)[C@]13CCCC[C@@H]1[C@H](C2)N(C)CC3 [DEXTROMETHORPHAN] | microsomal CLint at 3 µM | µL/min/mg | 21.9

----------
- study_system: Albumin (Homo sapiens, UniProt P02768)
- Sequence (P02768 whole entry): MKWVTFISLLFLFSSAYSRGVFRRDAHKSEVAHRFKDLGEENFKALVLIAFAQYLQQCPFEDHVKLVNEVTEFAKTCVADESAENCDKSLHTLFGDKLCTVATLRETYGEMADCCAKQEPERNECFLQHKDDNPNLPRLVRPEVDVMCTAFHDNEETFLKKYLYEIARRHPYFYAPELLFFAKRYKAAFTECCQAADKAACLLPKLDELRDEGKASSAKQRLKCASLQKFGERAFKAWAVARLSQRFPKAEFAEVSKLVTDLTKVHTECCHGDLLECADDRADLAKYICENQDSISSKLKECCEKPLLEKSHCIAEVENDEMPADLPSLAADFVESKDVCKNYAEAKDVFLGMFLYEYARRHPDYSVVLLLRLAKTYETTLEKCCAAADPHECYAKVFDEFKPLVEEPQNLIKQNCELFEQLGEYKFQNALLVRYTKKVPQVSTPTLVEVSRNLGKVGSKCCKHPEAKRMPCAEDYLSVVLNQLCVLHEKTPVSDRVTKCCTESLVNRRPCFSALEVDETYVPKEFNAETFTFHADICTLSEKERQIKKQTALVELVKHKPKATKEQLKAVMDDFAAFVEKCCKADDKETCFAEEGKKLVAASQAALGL
- measurement_protocol: Binding affinity to human serum albumin at 5 uM by equilibrium dialysis based LC-MS/MS analysis
- Format: ADME
- conditions: read-out: PB (converted)
# maps each entry to its fraction unbound at 5 µM
measurement_name: fraction unbound at 5 µM

molecule | measurement_name | observed
CC1(C)C(=O)N(c2ccc([N+](=O)[O-])cc2C(F)(F)F)C(=S)N1c1cc(C(F)(F)F)cc(C(F)(F)F)c1 | fraction unbound at 5 µM | 0.001
CC(O)(COc1cc(C(F)(F)F)cc(C(F)(F)F)c1)C(=O)Nc1ccc(C#N)c(C(F)(F)F)c1 (centres undefined) | fraction unbound at 5 µM | 0.053
CC(O)(CS(=O)(=O)c1ccccc1OC(F)(F)F)C(=O)Nc1cc(C(F)(F)F)cc(C(F)(F)F)c1 (centres undefined) | fraction unbound at 5 µM | 0.217
C[C@](O)(CS(=O)(=O)c1cc(C(F)(F)F)cc(C(F)(F)F)c1)C(=O)Nc1ccc(C#N)c(C(F)(F)F)c1 | fraction unbound at 5 µM | 0.001
